Protocol Summary: Solubility of terephthalaldehyde and major impurities in p-xylene and DMSO
Condition Description: p-xylene, 100 °C, organic solvent or mixture, in p-xylene (100° C.)
Readout: solubility

Q. Please report the recorded solubility for O=Cc1ccc(C(=O)O)cc1 [4-CBA, 4-carboxybenzaldehyde] .
A. < 20 mg/mL

Origin of values: patent US7910780B2
